These measurements were taken from patent US20200094031A1.

- Experiment: Tacrolimus concentration in gastrointestinal tissue, luminal content and rectal contents, and tissue/plasma ratios (Example 13)
- Format: in vivo, Yorkshire-Cross farm swine
- Condition Notes: female, Yorkshire-Cross, pig, other: intra-cecal; cecum tissue, 12 hr post dose, Group 4 IC (0.04 mg/kg), swine

Compound Structure String	concentration at 12 h
C=CC[C@@H]1/C=C(\C)C[C@H](C)C[C@H](OC)[C@H]2O[C@@](O)(C(=O)C(=O)N3CCCC[C@H]3C(=O)O[C@H](/C(C)=C/[C@@H]3CC[C@@H](O)[C@H](OC)C3)[C@H](C)[C@@H](O)CC1=O)[C@H](C)C[C@@H]2OC	52.3 ng/g

----------
- Experiment: Tacrolimus concentration in gastrointestinal tissue, luminal content and rectal contents, and tissue/plasma ratios (Example 13)
- Assay type: in vivo, Yorkshire-Cross farm swine
- Condition Notes: female, Yorkshire-Cross, pig, other: intra-cecal; cecum tissue, 12 hr post dose, Group 5 IC (0.09 mg/kg), swine

Compound Structure String	Unit Label	concentration at 12 h
C=CC[C@@H]1/C=C(\C)C[C@H](C)C[C@H](OC)[C@H]2O[C@@](O)(C(=O)C(=O)N3CCCC[C@H]3C(=O)O[C@H](/C(C)=C/[C@@H]3CC[C@@H](O)[C@H](OC)C3)[C@H](C)[C@@H](O)CC1=O)[C@H](C)C[C@@H]2OC	ng/g	77.3

----------
- Experiment: Tacrolimus concentration in gastrointestinal tissue, luminal content and rectal contents, and tissue/plasma ratios (Example 13)
- Format: in vivo, Yorkshire-Cross farm swine
- Condition Notes: female, Yorkshire-Cross, pig, other: intra-cecal; proximal colon tissue, 12 hr post dose, Group 4 IC (0.04 mg/kg), swine
Measurement Kind: concentration at 12 h (ng/g)

Compound Structure String	Readout Number
C=CC[C@@H]1/C=C(\C)C[C@H](C)C[C@H](OC)[C@H]2O[C@@](O)(C(=O)C(=O)N3CCCC[C@H]3C(=O)O[C@H](/C(C)=C/[C@@H]3CC[C@@H](O)[C@H](OC)C3)[C@H](C)[C@@H](O)CC1=O)[C@H](C)C[C@@H]2OC	98.3

----------
- Experiment: Tacrolimus concentration in gastrointestinal tissue, luminal content and rectal contents, and tissue/plasma ratios (Example 13)
- Format: in vivo, Yorkshire-Cross farm swine
- Condition Notes: female, Yorkshire-Cross, pig, transverse colon tissue, other: intra-cecal, 0.09 mg/kg, transverse colon, Group 5 IC (0.09 mg/kg), swine; read-out: Ratio Tissue (mean) (ng/g)/Trough(12 hr) (ng/ml)
Measurement Kind: Kp at 12 h

Compound	Measurement Kind	Readout Number
C=CC[C@@H]1/C=C(\C)C[C@H](C)C[C@H](OC)[C@H]2O[C@@](O)(C(=O)C(=O)N3CCCC[C@H]3C(=O)O[C@H](/C(C)=C/[C@@H]3CC[C@@H](O)[C@H](OC)C3)[C@H](C)[C@@H](O)CC1=O)[C@H](C)C[C@@H]2OC [tacrolimus]	Kp at 12 h	62.5

----------
- Experiment: Tacrolimus concentration in gastrointestinal tissue, luminal content and rectal contents, and tissue/plasma ratios (Example 13)
- Format: in vivo, Yorkshire-Cross farm swine
- Condition Notes: female, Yorkshire-Cross, pig, proximal colon tissue, other: intra-cecal, 0.04 mg/kg, proximal colon, Group 4 IC (0.04 mg/kg), swine; read-out: Ratio Tissue (mean) (ng/g)/Trough(12 hr) (ng/ml)

Molecule	Kp at 12 h
C=CC[C@@H]1/C=C(\C)C[C@H](C)C[C@H](OC)[C@H]2O[C@@](O)(C(=O)C(=O)N3CCCC[C@H]3C(=O)O[C@H](/C(C)=C/[C@@H]3CC[C@@H](O)[C@H](OC)C3)[C@H](C)[C@@H](O)CC1=O)[C@H](C)C[C@@H]2OC [tacrolimus]	50.1

----------
- Experiment: Blood pharmacokinetics of oral vs intra-cecal tacrolimus (Example 13)
- Design: species or system Yorkshire-Cross farm swine
- Condition Notes: female, Yorkshire-Cross, pig, in vivo, 0.02 mg/kg, Trough (12 hr)

Compound Structure String	Unit Label	concentration at 12 hr
C=CC[C@@H]1/C=C(\C)C[C@H](C)C[C@H](OC)[C@H]2O[C@@](O)(C(=O)C(=O)N3CCCC[C@H]3C(=O)O[C@H](/C(C)=C/[C@@H]3CC[C@@H](O)[C@H](OC)C3)[C@H](C)[C@@H](O)CC1=O)[C@H](C)C[C@@H]2OC	ng/mL	0.746

----------
- Experiment: Tacrolimus concentration in gastrointestinal tissue, luminal content and rectal contents, and tissue/plasma ratios (Example 13)
- Type: in vivo, Yorkshire-Cross farm swine
- Condition Notes: female, Yorkshire-Cross, pig, in vivo, po, 0.09 mg/kg, Ratio Tissue (mean) (ng/g)/AUG(0-12 hr) (ng · hr/ml)
- Text: The primary objective of this study was to study the pharmacokinetics of oral versus intra-cecal administration of tacrolimus in normal Yorkshire-Cross farm swine. […]

Compound Structure String	Kp at 12 h
C=CC[C@@H]1/C=C(\C)C[C@H](C)C[C@H](OC)[C@H]2O[C@@](O)(C(=O)C(=O)N3CCCC[C@H]3C(=O)O[C@H](/C(C)=C/[C@@H]3CC[C@@H](O)[C@H](OC)C3)[C@H](C)[C@@H](O)CC1=O)[C@H](C)C[C@@H]2OC	0

----------
- Experiment: Blood pharmacokinetics of oral vs intra-cecal tacrolimus (Example 13)
- Design: species or system Yorkshire-Cross farm swine
- Condition Notes: female, Yorkshire-Cross, pig, in vivo, 0.02 mg/kg
Measurement Kind: AUC(0-t)

Molecule	Measurement Kind	Result
C=CC[C@@H]1/C=C(\C)C[C@H](C)C[C@H](OC)[C@H]2O[C@@](O)(C(=O)C(=O)N3CCCC[C@H]3C(=O)O[C@H](/C(C)=C/[C@@H]3CC[C@@H](O)[C@H](OC)C3)[C@H](C)[C@@H](O)CC1=O)[C@H](C)C[C@@H]2OC [tacrolimus]	AUC(0-t)	0.0153 µg·h/mL

----------
- Experiment: Tacrolimus concentration in gastrointestinal tissue, luminal content and rectal contents, and tissue/plasma ratios (Example 13)
- Assay type: in vivo, Yorkshire-Cross farm swine
- Condition Notes: female, Yorkshire-Cross, pig, distal colon tissue, other: intra-cecal, 0.09 mg/kg, distal colon, Group 5 IC (0.09 mg/kg), swine; read-out: Ratio Tissue (mean) (ng/g)/Trough(12 hr) (ng/ml)
Measurement Kind: Kp at 12 h

Compound	Readout Number
C=CC[C@@H]1/C=C(\C)C[C@H](C)C[C@H](OC)[C@H]2O[C@@](O)(C(=O)C(=O)N3CCCC[C@H]3C(=O)O[C@H](/C(C)=C/[C@@H]3CC[C@@H](O)[C@H](OC)C3)[C@H](C)[C@@H](O)CC1=O)[C@H](C)C[C@@H]2OC [tacrolimus]	15.6

----------
- Experiment: Tacrolimus concentration in gastrointestinal tissue, luminal content and rectal contents, and tissue/plasma ratios (Example 13)
- Assay type: in vivo, Yorkshire-Cross farm swine
- Condition Notes: female, Yorkshire-Cross, pig, other: intra-cecal; proximal colon tissue, 12 hr post dose, Group 5 IC (0.09 mg/kg), swine
Measurement Kind: concentration at 12 h (ng/g)

Compound	Measurement Kind	Readout Number
C=CC[C@@H]1/C=C(\C)C[C@H](C)C[C@H](OC)[C@H]2O[C@@](O)(C(=O)C(=O)N3CCCC[C@H]3C(=O)O[C@H](/C(C)=C/[C@@H]3CC[C@@H](O)[C@H](OC)C3)[C@H](C)[C@@H](O)CC1=O)[C@H](C)C[C@@H]2OC [tacrolimus]	concentration at 12 h	157

----------
- Experiment: Tacrolimus concentration in gastrointestinal tissue, luminal content and rectal contents, and tissue/plasma ratios (Example 13)
- Type: in vivo, Yorkshire-Cross farm swine
- Condition Notes: female, Yorkshire-Cross, pig, distal colon tissue, other: intra-cecal, 0.04 mg/kg, distal colon, Group 4 IC (0.04 mg/kg), swine; read-out: Ratio Tissue (mean) (ng/g)/Trough(12 hr) (ng/ml)
Measurement Kind: Kp at 12 h

Compound Structure String	Result
C=CC[C@@H]1/C=C(\C)C[C@H](C)C[C@H](OC)[C@H]2O[C@@](O)(C(=O)C(=O)N3CCCC[C@H]3C(=O)O[C@H](/C(C)=C/[C@@H]3CC[C@@H](O)[C@H](OC)C3)[C@H](C)[C@@H](O)CC1=O)[C@H](C)C[C@@H]2OC	14.6

----------
- Experiment: Blood pharmacokinetics of oral vs intra-cecal tacrolimus (Example 13)
- Set-up: species or system Yorkshire-Cross farm swine
- Condition Notes: female, Yorkshire-Cross, pig, in vivo, 0.04 mg/kg, Trough (12 hr)
Measurement Kind: concentration at 12 hr

Compound Structure String	Result
C=CC[C@@H]1/C=C(\C)C[C@H](C)C[C@H](OC)[C@H]2O[C@@](O)(C(=O)C(=O)N3CCCC[C@H]3C(=O)O[C@H](/C(C)=C/[C@@H]3CC[C@@H](O)[C@H](OC)C3)[C@H](C)[C@@H](O)CC1=O)[C@H](C)C[C@@H]2OC	1.96 ng/mL
